Subject Of Test: BcII (Bacillus cereus)
Construct: made in house
Sequence (P04190 31-257): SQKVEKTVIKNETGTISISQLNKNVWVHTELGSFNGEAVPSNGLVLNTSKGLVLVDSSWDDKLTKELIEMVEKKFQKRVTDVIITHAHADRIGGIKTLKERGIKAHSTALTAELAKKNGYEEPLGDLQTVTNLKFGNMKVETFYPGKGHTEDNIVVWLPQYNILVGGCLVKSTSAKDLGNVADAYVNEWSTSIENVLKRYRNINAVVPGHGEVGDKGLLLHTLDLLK
Assay Info: biochemical
Details: read-out: IC50 versus BcII
Experimental: Inhibition analyses against bacterial MBLs and SBLs were performed as described previously.[22], [24], [26] Residual enzyme activities were determined for a range of inhibitor concentrations. Non-linear regression fitting of IC50 curves was carried out using a three-parameter dose–response curve in GraphPad Prism. Errors in IC50 values are expressed as: σ(logIC50)/logIC50×IC50 […] Figure S2: IC50 curves for BcII inhibition time courses. Residual activities were calculated from the initial […]
pIC50: −log10 of the molar value.
Attribute Measured: pIC50

> print(dat)
                                   compound  attribute.measured  reported.result
1  O=C(O)C(S)c1ccccc1 (stereo not shown) [Compound 13a]               pIC50             7.00

----------
Subject Of Test: BcII (Bacillus cereus)
Construct: made in house
Assay Info: biochemical
Details: enethiols 6 assayed as sodium salts; 10 min incubation; read-out: IC50 BcII (converted)
Attribute Measured: IC50 (nM)

> print(dat)
                                   compound  reported.result
1  Cc1cccc(C)c1/C=C1\SC(=S)N(CC(=O)NN2CCN(C)CC2)C1=O [Compound 5q]            27000
2  O=C(O)/C(S)=C/c1c(Cl)cccc1Cl [Compound 6m]               70
3  COc1ccc(/C=C(\S)C(=O)O)cc1 [Compound 6e]             2400
4  O=C(O)CN1C(=O)/C(=C/c2c(Cl)cccc2Cl)SC1=S [Compound 3m]            41800
5  O=C(O)/C(S)=C/c1ccccc1Cc1ccc2ccccc2c1 [Compound 6s]              200

----------
Subject Of Test: SPM-1 (Pseudomonas aeruginosa, UniProt Q8G9Q0)
Sequence (Q8G9Q0 entry or part of it): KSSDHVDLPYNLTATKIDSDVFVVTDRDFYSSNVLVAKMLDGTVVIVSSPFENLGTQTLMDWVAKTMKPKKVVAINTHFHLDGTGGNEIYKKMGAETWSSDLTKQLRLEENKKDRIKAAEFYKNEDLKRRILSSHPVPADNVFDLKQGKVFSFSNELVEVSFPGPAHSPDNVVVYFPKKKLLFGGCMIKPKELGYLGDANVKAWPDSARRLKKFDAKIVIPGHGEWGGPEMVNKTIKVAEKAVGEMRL
Assay Info: SPM-1 inhibition, fluorogenic cephalosporin (FC5) hydrolysis
Assay type: biochemical
Details: enethiols 6 assayed as sodium salts; 10 min incubation; read-out: IC50 SPM-1 (converted)
Attribute Measured: IC50 (nM)

> print(dat)
                                    molecule  attribute.measured  reported.result
 1  O=C(O)CN1C(=O)/C(=C/c2ccccc2Cl)SC1=S [Compound 3g]                IC50            25100
 2  O=C(O)/C(S)=C/c1c(Cl)cccc1Cl [Compound 6m]                IC50               10
 3  CN1CCN(NC(=O)CN2C(=O)/C(=C/c3cccc(Cl)c3Cl)SC2=S)CC1 [Compound 5n]                IC50              300
 4  CN1CCN(NC(=O)CN2C(=O)/C(=C/c3ccccc3I)SC2=S)CC1 [Compound 5i]                IC50             8800
 5  CN1CCN(NC(=O)CN2C(=O)/C(=C/c3ccccc3Br)SC2=S)CC1 [Compound 5h]                IC50             8100
 6     O=C(O)/C(S)=C/c1ccccc1I [Compound 6i]                IC50             1400
 7  O=C(O)/C(S)=C/c1c(F)ccc(F)c1F [Compound 6k]                IC50              100
 8  O=C(O)/C(S)=C/c1c(Cl)ccc(Cl)c1Cl [ML302F, reference compound]                IC50               20
 9  O=C(O)CN1C(=O)/C(=C/c2ccccc2Br)SC1=S [Compound 3h]                IC50            36600
10  COc1ccc(/C=C(\S)C(=O)O)cc1 [Compound 6e]                IC50              600

----------
Subject Of Test: NDM-1 (Klebsiella pneumoniae, UniProt C7C422)
Construct: made in house
Sequence (C7C422 29-270, looked up, species assumed): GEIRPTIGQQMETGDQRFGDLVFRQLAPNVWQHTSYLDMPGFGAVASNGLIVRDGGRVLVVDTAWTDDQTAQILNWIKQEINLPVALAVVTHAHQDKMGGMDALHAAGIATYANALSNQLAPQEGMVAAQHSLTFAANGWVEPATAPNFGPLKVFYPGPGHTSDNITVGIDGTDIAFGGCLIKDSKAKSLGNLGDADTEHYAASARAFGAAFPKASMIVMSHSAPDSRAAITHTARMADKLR
Assay Info: NDM-1 inhibition, fluorogenic cephalosporin (FC5) hydrolysis
Type: biochemical
Details: enethiols 6 assayed as sodium salts; 10 min incubation; read-out: IC50 NDM-1
Each entry belongs to exactly one class, chosen by where its IC50 falls: c1 = under 5 µM, c2 = from 5 µM up to 30 µM, c3 = 30 µM and over

> print(dat)
                                    molecule  answer.label
 1  O=C(O)/C(S)=C/c1csc2ccccc12 [Compound 6L]            c2
 2  Cc1ccc(/C=C2\SC(=S)N(CC(=O)O)C2=O)cc1 [Compound 3b]            c3
 3  O=C(O)CN1C(=O)/C(=C/c2ccccc2)SC1=S [Compound 3a]            c3
 4  COc1ccc(/C=C(\S)C(=O)O)cc1 [Compound 6e]            c2
 5  CN1CCN(NC(=O)CN2C(=O)/C(=C/c3cc(Cl)ccc3Cl)SC2=S)CC1 [Compound 5o]            c3
 6  O=C(O)/C(S)=C/c1cccc(Cl)c1Cl [Compound 6n]            c3
 7  CN1CCN(NC(=O)CN2C(=O)/C(=C/c3ccccc3Br)SC2=S)CC1 [Compound 5h]            c3
 8  O=C(O)/C(S)=C/c1c2ccccc2cc2ccccc12 [Compound 6r]            c1
 9  CN1CCN(NC(=O)CN2C(=O)/C(=C/c3cccc(Cl)c3Cl)SC2=S)CC1 [Compound 5n]            c3
10  CN1CCN(NC(=O)CN2C(=O)/C(=C/c3ccccc3)SC2=S)CC1 [Compound 5a]            c2
11  O=C(O)/C(S)=C/c1c(F)cccc1Cl [Compound 6j]            c1
12  O=C(O)/C(S)=C/c1c(F)cccc1F [Compound 6p]            c2
13  CN1CCN(NC(=O)CN2C(=O)/C(=C/c3ccccc3Cl)SC2=S)CC1 [Compound 5g]            c3
14  O=C(O)CN1C(=O)/C(=C/c2ccc(F)cc2)SC1=S [Compound 3c]            c3
15  CN1CCN(NC(=O)CN2C(=O)/C(=C/c3ccc(Br)cc3)SC2=S)CC1 [Compound 5d]            c3
16  O=C(O)CN1C(=O)/C(=C/c2c(F)ccc(F)c2F)SC1=S [Compound 3k]            c3
17  CN1CCN(NC(=O)CN2C(=O)/C(=C/c3c(F)ccc(F)c3F)SC2=S)CC1 [Compound 5k]            c3
18  O=C(O)CN1C(=O)/C(=C/c2c(Cl)cccc2Cl)SC1=S [Compound 3m]            c3
19  COc1ccc(/C=C2\SC(=S)N(CC(=O)NN3CCN(C)CC3)C2=O)cc1 [Compound 5e]            c3
20  O=C(O)CN1C(=O)/C(=C/c2csc3ccccc23)SC1=S [Compound 3L]            c3
21  O=C(O)CN1C(=O)/C(=C/c2cc(Cl)ccc2Cl)SC1=S [Compound 3o]            c3
22  O=C(O)/C(S)=C/c1ccccc1Cc1ccc2ccccc2c1 [Compound 6s]            c1
23  O=C(O)/C(S)=C/c1c(Cl)ccc(Cl)c1Cl [ML302F, reference compound]            c1
24  CN1CCN(NC(=O)CN2C(=O)/C(=C/c3ccc(F)cc3)SC2=S)CC1 [Compound 5c]            c3
25  CN1CCN(NC(=O)CN2C(=O)/C(=C/c3ccccc3I)SC2=S)CC1 [Compound 5i]            c3

----------
Subject Of Test: VIM-2 (Escherichia coli, UniProt Q5U7L7)
Construct: made in house
Assay Info: biochemical
Details: enethiols 6 assayed as sodium salts; 10 min incubation; read-out: IC50 VIM-2 (converted)
# maps each entry to its IC50
Attribute Measured: IC50 (µM)

> print(dat)
                                   compound                           subject.of.test  units.symbol  comparison.symbol  reported.result
1   O=C(O)/C(S)=C/c1ccc(F)cc1 [Compound 6c]  VIM-2 (Escherichia coli, UniProt Q5U7L7)            µM                  =              9.7
2  Cc1ccc(/C=C2\SC(=S)N(CC(=O)O)C2=O)cc1 [Compound 3b]  VIM-2 (Escherichia coli, UniProt Q5U7L7)            µM                  =               32
3  O=C(O)CN1C(=O)/C(=C/c2ccccc2Br)SC1=S [Compound 3h]  VIM-2 (Escherichia coli, UniProt Q5U7L7)            µM                  >               50
4  Cc1cccc(C)c1/C=C1\SC(=S)N(CC(=O)NN2CCN(C)CC2)C1=O [Compound 5q]  VIM-2 (Escherichia coli, UniProt Q5U7L7)            µM                  =             29.4
5  CN1CCN(NC(=O)CN2C(=O)/C(=C/c3c(Cl)ccc(Cl)c3Cl)SC2=S)CC1 [ML302, reference compound]  VIM-2 (Escherichia coli, UniProt Q5U7L7)            µM                  =             0.06
6  CN1CCN(NC(=O)CN2C(=O)/C(=C/c3c(F)ccc(F)c3F)SC2=S)CC1 [Compound 5k]  VIM-2 (Escherichia coli, UniProt Q5U7L7)            µM                  =              2.6
7  O=C(O)CN1C(=O)/C(=C/c2c(F)ccc(F)c2F)SC1=S [Compound 3k]  VIM-2 (Escherichia coli, UniProt Q5U7L7)            µM                  =             47.6
8  CN1CCN(NC(=O)CN2C(=O)/C(=C/c3c(F)cccc3Cl)SC2=S)CC1 [Compound 5j]  VIM-2 (Escherichia coli, UniProt Q5U7L7)            µM                  =              0.8
9  CN1CCN(NC(=O)CN2C(=O)/C(=C/c3c(Cl)cccc3Cl)SC2=S)CC1 [Compound 5m]  VIM-2 (Escherichia coli, UniProt Q5U7L7)            µM                  =              0.3
